Data provenance is PubChem BioAssay (NCI).

Consider the following molecules and their measured growth readings.
- Test system: DU-145 prostate
- Experiment description: NCI-60 one-dose screen, 48 h (100 = growth as untreated, 0 = no growth, -100 = all killed)
- Protocol conditions: 10 µM unless noted
This is part of a sample that, as a whole, favours compounds with a hit. Of some 83,000 tested, about 20% had one in any assay. Activity calls are given as the source filed them. Rule for the calls: active = growth percent below 10; inactive = the rest.

Sample answers from the record:
1) COCCOc1cnc2ccn([C@H](C)c3nnc4c(F)cc(-c5cnn(C)c5)cn34)c(=O)c2c1 : 91.2% (inactive)
2) Cc1cc2c3c(cccc3c1)C(=O)c1ccccc1-2 : 98.9% (inactive)
3) COc1c(C(NC(=O)c2ccccc2)c2sccc2C)cc(Cl)c2cccnc12 (stereo not drawn) : 108% (inactive)

Exercise: What measured growth goes with `N#Cc1c(-c2ccc(C(F)(F)F)cc2)cc(NCC2CCS(=O)(=O)CC2)n2c1nc1ccccc12` ?
Solution: 106% (inactive)

Exercise: What measured growth goes with COC(=O)[C@@H](OC)[C@@H]1Cc2cc3cc(OC4CC(OC5CC(O)C(O)C(C)O5)C(O)C(C)O4)c(C)c(O)c3c(O)c2C(=O)[C@H]1OC1CC(OC2CC(OC3CC(C)(O)C(O)C(C)O3)C(O)C(C)O2)C(O)C(C)O1 (stereo partly drawn) ?
Solution: 10.2% (inactive)

Exercise: What measured growth goes with `C#Cc1cccc(Nc2ncnc3cc(OC)c(OCCCCCCC(=O)NO)cc23)c1` ?
Solution: 0.81% (active)

Exercise: What measured growth goes with `COc1ccc(OC)c(NC2=C(SCCc3ccccc3)C(=O)c3ccccc3C2=O)c1` ?
Solution: 92.2% (inactive)

Exercise: What measured growth goes with CC1=CC2c3oc(-c4ccccc4)c(C(=O)c4ccccc4)c3CNC2C=C1 (stereo not drawn) ?
Solution: 112% (inactive)

###

- Tested on: K-562 leukemia
- Experiment description: NCI-60 one-dose screen, 48 h (100 = growth as untreated, 0 = no growth, -100 = all killed)
- Protocol conditions: 10 µM unless noted
About 83,000 compounds went through this panel and 20% of them were active in at least one assay; those are over-represented in the sample as a whole.
Outcome measure: growth (%)
Value expressed in %; do not type the unit.

Sample answers from the record:
1. CN1CCN(Cc2ccc(NC(=O)c3[nH]ncc3Nc3ncnc4sc5c(c34)CCCC5)cc2)CC1 : -60.6
2. O=C(NO)c1ccc(Cn2c(=O)n(-c3ccccc3F)c(=O)c3ccccc32)cc1 : 1.13
3. NC(=O)c1c(OCc2c(F)cc(Br)cc2F)nsc1NC(=O)NCCCCN1CCCC1 : -46.8
4. COc1c(C(NC(=O)c2ccccc2)c2sccc2C)cc(Cl)c2cccnc12 (configuration not stated) : 105
5. COc1cc(C2CC(c3ccc(Cl)cc3)=NN2c2ccc(Cl)cc2)cc(OC)c1OC (configuration not stated) : 93.8
6. CC1=CC2c3oc(-c4ccccc4)c(C(=O)c4ccccc4)c3CNC2C=C1 (configuration not stated) : 95.8

Now for another entry.
Exercise: What measured growth goes with `O=S1(=O)OC(c2ccc(O)c(Cl)c2)(c2ccc(O)c(Cl)c2)c2ccccc21` ?
Solution: 113

###

- Test system: PC-3 prostate
- Experiment description: NCI-60 one-dose screen, 48 h (100 = growth as untreated, 0 = no growth, -100 = all killed)
- Protocol conditions: 10 µM unless noted
This is part of a sample that, as a whole, favours compounds with a hit. Of some 83,000 tested, about 20% had one in any assay.
Could you label it criterion met if measured growth is 10% or higher, and criterion not met otherwise?

1. Cn1cc(-c2ncnc3ccc(-c4cnc(Cl)c(NS(C)(=O)=O)c4)cc23)c2ccccc21 : criterion met

Exercise: API: above_or_equal(metric=growth, cutoff=10%) for item `Cn1c(Nc2ccc(C(F)(F)F)cc2)nc2cc(Oc3ccnc(-c4ncc(C(F)(F)F)[nH]4)c3)ccc21`
Solution: criterion met

Exercise: API: above_or_equal(metric=growth, cutoff=10%) for item `COc1ccc(F)c(F)c1C(=O)c1cnc(NC2CCN(S(C)(=O)=O)CC2)nc1N`
Solution: criterion not met

Exercise: API: above_or_equal(metric=growth, cutoff=10%) for item CO[C@H](C(=O)N[C@@H](CCCCNC(=O)OCc1ccccc1)C(=O)OC(C)(C)C)[C@@H]1Cc2cc3cc(OC4CC(OC5CC(O)C(O)C(C)O5)C(O)C(C)O4)c(C)c(O)c3c(O)c2C(=O)[C@H]1OC1CC(OC2CC(OC3CC(C)(O)C(O)C(C)O3)C(O)C(C)O2)C(O)C(C)O1 (some centres undefined)
Solution: criterion not met

Exercise: API: above_or_equal(metric=growth, cutoff=10%) for item `COc1cnc2c(c1)C(=O)c1c-2n(CCCN2CCOCC2)c(=O)c2cc(Cl)ccc12`
Solution: criterion met

Exercise: API: above_or_equal(metric=growth, cutoff=10%) for item `COCCOc1cnc2ccn([C@H](C)c3nnc4c(F)cc(-c5cnn(C)c5)cn34)c(=O)c2c1`
Solution: criterion met

Exercise: API: above_or_equal(metric=growth, cutoff=10%) for item CC(=O)OC(C(=O)c1ccccc1)c1ccccc1 (centres undefined)
Solution: criterion met

Exercise: API: above_or_equal(metric=growth, cutoff=10%) for item `C[C@@H](Oc1cc(-c2cnn(C3CCNCC3)c2)cnc1N)c1c(Cl)ccc(F)c1Cl`
Solution: criterion not met

Exercise: API: above_or_equal(metric=growth, cutoff=10%) for item `CCCCCCCCCNCCCCCCCCC`
Solution: criterion met

Exercise: API: above_or_equal(metric=growth, cutoff=10%) for item `C=C1CC[C@@H]2[C@](C)(COC(C)=O)[C@H](OC(C)=O)CC[C@@]2(C)[C@@H]1C/C=C1/C(=O)OC[C@H]1OC(C)=O`
Solution: criterion met

Exercise: API: above_or_equal(metric=growth, cutoff=10%) for item COc1ccc(-c2cc3c(C)nc(N)nc3n(C3CCC(OCCO)CC3)c2=O)cn1 (centres undefined)
Solution: criterion not met

Exercise: API: above_or_equal(metric=growth, cutoff=10%) for item `CC(=O)c1c(C)c2cnc(Nc3ccc(N4CCNCC4)cn3)nc2n(C2CCCC2)c1=O`
Solution: criterion met

Exercise: API: above_or_equal(metric=growth, cutoff=10%) for item `Cc1ccc(-n2nc(C(C)(C)C)cc2NC(=O)NCc2cc(F)ccc2Oc2ccc3c(cnn3CCO)c2)cc1`
Solution: criterion met
